Experiment: CIMA assay (tetrazolium reduction, cell viability), CCD1079SK
Type: cell-based, human
Details: human
Measurement name: viability at 72 h, 1 µg/mL (%)
Kindly provide the numeric value in % only, without the unit symbol.

viability at 72 h, 1 µg/mL for CCCCCC(O)C(O)/C=C/C1CCCCCCCC(=O)O1 (stereo not shown) [compound 31-34-5, 12,13-dihydroxy-10-octadecen-9-olide] is 91

###

Tested on: PC3
Test: CIMA assay (tetrazolium reduction, cell viability), PC3
Assay type: cell-based
Measurement name: cell viability AVG (%)
Quick note: give the figure in %, leave out the unit.

The reported cell viability AVG of the compound CCCCCCCCCCCCOS(=O)(=O)[O-].[Na+] [SDS 5%, reference compound] was 77.3
